- testSystem: 11β-HSD2 (Homo sapiens)
- Construct: endogenous in cells; host or cells: HepG2 (ATCC HB-8065)
- Sequence (P80365 1-405): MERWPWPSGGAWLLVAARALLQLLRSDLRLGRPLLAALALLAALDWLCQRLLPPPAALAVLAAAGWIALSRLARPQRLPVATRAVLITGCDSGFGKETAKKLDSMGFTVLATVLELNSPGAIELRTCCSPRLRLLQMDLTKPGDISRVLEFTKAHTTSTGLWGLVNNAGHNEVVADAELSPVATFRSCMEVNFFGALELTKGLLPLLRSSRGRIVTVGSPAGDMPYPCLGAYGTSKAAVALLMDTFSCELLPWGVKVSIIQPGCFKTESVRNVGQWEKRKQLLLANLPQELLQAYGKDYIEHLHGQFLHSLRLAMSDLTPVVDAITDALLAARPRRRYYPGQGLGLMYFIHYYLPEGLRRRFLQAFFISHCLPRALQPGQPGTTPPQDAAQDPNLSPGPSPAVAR
- experimentalProtocol: Cellular assay of 11β-HSD2 activity in HepG2 cells
- Assay type: cell-based
- condition: 4 hour pre-incubation, 10^-5M to 10^-10M, read-out: HSD2 cellular HepG2 Score
pIC50: −log10 of the molar value.
# Lookup of reported pIC50 keyed by entry

Example cases with answers are listed next.
| compound | readoutValue |
| --- | --- |
| Cc1ccc(OC(C)(C)C(=O)N[C@H]2[C@@H]3CC4C[C@H]2C[C@](OCc2ccccc2)(C4)C3)cc1 | 5.00 to 6.00 |
| Cc1ccccc1OC(C)(C)C(=O)N[C@H]1[C@@H]2CC3C[C@H]1C[C@](O)(C3)C2 | > 6.00 |
| Cc1cc(Cl)ccc1OC(C)(C)C(=O)N[C@H]1[C@@H]2CC3C[C@H]1C[C@](N1CCC(C)C1=O)(C3)C2 (stereo partly drawn) | > 6.00 |

*Q* So what's the measured pIC50 for this one? CCS(=O)(=O)N[C@@]12CC3C[C@H](C1)[C@H](NC(=O)C(C)(C)Oc1cccc(C(F)(F)F)c1)[C@@H](C3)C2
*A* 5.00 to 6.00

*Q* Also, CN1CC(C(=O)N[C@@H]2[C@@H]3CC4C[C@H]2C[C@@](O)(C4)C3)Oc2ccccc21 (stereo partly drawn) please.
*A* < 5.00

*Q* Also, Cc1cccc(OC(C)(C)C(=O)N[C@H]2[C@@H]3CC4C[C@H]2C[C@](O)(C4)C3)c1 please.
*A* 5.00 to 6.00

*Q* Also, CCC(=O)N[C@@]12CC3C[C@H](C1)[C@H](NC(=O)C(C)(C)Oc1ccc(Cl)cc1C)[C@@H](C3)C2 please.
*A* > 6.00

*Q* Also, CC(C)(Nc1cccc(C(F)(F)F)c1)C(=O)N[C@H]1[C@@H]2CC3C[C@H]1C[C@](O)(C3)C2 please.
*A* < 5.00

*Q* Also, CC(C)(Oc1ccc(Cl)cc1)C(=O)N[C@H]1[C@@H]2CC3C[C@H]1C[C@](NC(=O)CCl)(C3)C2 please.
*A* 5.00 to 6.00

----------
# Lookup of reported pIC50 keyed by entry
- testSystem: 11β-HSD2 (Homo sapiens, UniProt P80365)
- Construct: endogenous in cells; host or cells: HepG2 (ATCC HB-8065)
- experimentalProtocol: Cellular assay of 11β-HSD2 activity in HepG2 cells
- Assay type: cell-based
- condition: 4 hour pre-incubation, 10^-5M to 10^-10M, read-out: HSD2 cellular HepG2 Score
pIC50: −log10 of the molar value.

Example cases with answers are listed next.
| molecule | valueType | readoutValue |
| --- | --- | --- |
| CC(C)(Oc1ccccc1Br)C(=O)N[C@H]1[C@@H]2CC3C[C@H]1C[C@](O)(C3)C2 [Compound 15] | pIC50 | > 6.00 |
| CC(=O)N[C@@]12CC3C[C@H](C1)[C@H](NC(=O)C(C)(C)Nc1cccc(C(F)(F)F)c1)[C@@H](C3)C2 [Compound 65] | pIC50 | < 5.00 |
| O=C(N[C@H]1[C@@H]2CC3C[C@H]1C[C@](O)(C3)C2)C1CCc2ccccc2O1 (some centres unmarked) [Compound 26] | pIC50 | > 6.00 |
| CC(=O)Nc1cccc(OC(C)(C)C(=O)N[C@H]2[C@@H]3CC4C[C@H]2C[C@](O)(C4)C3)c1 [Compound 19] | pIC50 | > 6.00 |
| Cc1ccc(S(=O)(=O)N[C@@]23CC4C[C@H](C2)[C@H](NC(=O)C(C)(C)Oc2cccc(C(F)(F)F)c2)[C@@H](C4)C3)cc1 [Compound 89] | pIC50 | < 5.00 |

Let us examine a further case.
*Q* Lab request: please report pIC50 under test system 11β-HSD2 (Homo sapiens, UniProt P80365) for CC(C)(Oc1cccc(C(F)(F)F)c1)C(=O)N[C@H]1[C@@H]2CC3C[C@H]1C[C@](O)(C3)C2 [Compound 20]
*A* > 6.00
